# procedure-details: ATG_VDRE_CIS: Attagene CIS-FACTORIAL HepG2 Assay for human Vitamin D Receptor Element (VDRE) (AID 2282968)
# reported-conditions: HepG2 VDRE cis-reporter transcription, actives raise or lower the signal
# Procedure: ATG_CIS is a cell-based, multiplexed-readout assay that uses HepG2, a human liver cell line, with measurements taken at 24 hours after chemical dosing in a 24-well plate.ATG_VDRE_CIS is one of 52 assay component(s) measured or calculated from the ATG_CIS assay. […] This assay endpoint, ATG_VDRE_CIS, was analyzed with bidirectional fitting relative to DMSO as the negative control and baseline of activity. […]
Active and inactive are the calls of the source. Rule for the calls: active = hit-call score of the fitted dose curve at least 0.9, where 1 is the maximum; inactive = score below 0.9.
Possible outcomes: active, inactive

{"columns": ["molecule", "label-value"],
 "data": [
  ["Cc1ccccc1O", "inactive"],
  ["Oc1ccc(Cl)cc1Cl", "inactive"],
  ["CCCCCCCCCC[N+](C)(C)CCCCCCCCCC", "active"],
  ["CCC(C)(CC)c1cc(NC(=O)c2c(OC)cccc2OC)on1", "active"],
  ["ClC1=C(Cl)[C@]2(Cl)[C@@H]3[C@@H]4C[C@@H]([C@H]5O[C@@H]45)[C@@H]3[C@@]1(Cl)C2(Cl)Cl", "active"],
  ["ClC1=C(Cl)[C@]2(Cl)[C@@H]3[C@H]4C[C@H]([C@@H]5O[C@H]45)[C@@H]3[C@@]1(Cl)C2(Cl)Cl", "active"],
  ["c1cc2ccc3cccc4ccc(c1)c2c34", "inactive"],
  ["CN(C)c1nc(=O)n(C2CCCCC2)c(=O)n1C", "inactive"],
  ["CCOC(=O)C(O)(c1ccc(Cl)cc1)c1ccc(Cl)cc1", "active"],
  ["Cc1cc(-c2ccc(N)c(C)c2)ccc1N", "inactive"],
  ["CN(C)CCO", "inactive"],
  ["CCC(C)c1cc([N+](=O)[O-])cc([N+](=O)[O-])c1O (configuration not stated)", "active"],
  ["O=C(O)C(F)(F)C(F)(F)C(F)(F)C(F)(F)C(F)(F)F", "inactive"],
  ["Cc1cc2c3c(c1)C(c1ccccc1)=N[C@@H](NC(=O)c1ccncc1)C(=O)N3CC2", "active"],
  ["O=S(=O)(O)C(F)(F)C(F)(F)C(F)(F)C(F)(F)F", "inactive"],
  ["CCOCCOC(C)=O", "inactive"],
  ["CC(c1ccc(O)cc1)(c1ccc(O)cc1)c1ccc(O)cc1", "active"],
  ["Oc1ccc(C(c2ccc(O)cc2)(C(F)(F)F)C(F)(F)F)cc1", "active"],
  ["Nn1cnnc1", "inactive"],
  ["CO/C=C(/C(=O)OC)c1ccccc1COc1cccc(C(F)(F)F)n1", "active"],
  ["Cc1cc(O)ccc1Cl", "inactive"],
  ["CCOP(=S)(OCC)SCSC(C)(C)C", "inactive"]
]}

###

# Read-out: Paternally Expressed 10 (PEG10), PEG10 (gene 23089)
# procedure-details: LTEA_HepaRG_PEG10: Life Technologies and Expression Analysis (LTEA) Assay for Paternally Expressed 10 (PEG10) using HepaRG (AID 2283520)
# reported-conditions: mRNA level, 48 h; actives raise or lower the signal
The source made the active and inactive calls. How the source made its calls: active means hit-call score of the fitted dose curve at least 0.9, where 1 is the maximum; inactive means score below 0.9.
Possible outcomes: active, inactive

{"columns": ["molecule", "label-value"],
 "data": [
  ["CCCCCCCCOC(=O)c1ccccc1C(=O)OCCCCCCCC", "inactive"],
  ["CCCN(CCC)N=O", "inactive"],
  ["c1cc2ccc3cccc4ccc(c1)c2c34", "inactive"],
  ["C[C@]12CCC(=O)C=C1CC[C@@H]1[C@@H]2CC[C@@]2(C)[C@H]1CC[C@]2(C)O", "active"],
  ["O=S(=O)(O)C(F)(F)C(F)(F)C(F)(F)C(F)(F)F", "inactive"],
  ["CCCCCCOC(=O)c1ccccc1C(=O)OCCCCCC", "inactive"],
  ["CCSC(=O)N(CC)C1CCCCC1", "inactive"],
  ["Nc1ccc(-c2ccc(N)cc2)cc1", "active"],
  ["CN(C)CCO", "inactive"],
  ["CC1=C2C[C@H]3[C@@H](CC=C4C[C@@H](O)CC[C@@]43C)[C@@H]2CC[C@]12O[C@@H]1C[C@H](C)CN[C@H]1[C@H]2C", "inactive"],
  ["CCOP(=S)(OCC)SCSC(C)(C)C", "active"],
  ["Cc1ccccc1O", "inactive"],
  ["C=CC(=O)NCNC(=O)C=C", "inactive"],
  ["C1CC2OC2CC1C1CO1 (stereo unspecified)", "inactive"],
  ["Clc1ccc(C(Cl)(Cl)Cl)cc1", "inactive"],
  ["ClC1=C(Cl)[C@]2(Cl)[C@@H]3[C@H]4C[C@H]([C@@H]5O[C@H]45)[C@@H]3[C@@]1(Cl)C2(Cl)Cl", "inactive"],
  ["ClC1=C(Cl)[C@]2(Cl)[C@@H]3[C@@H]4C[C@@H]([C@H]5O[C@@H]45)[C@@H]3[C@@]1(Cl)C2(Cl)Cl", "inactive"],
  ["CCC(C)(CC)c1cc(NC(=O)c2c(OC)cccc2OC)on1", "active"],
  ["C=CC(N)=O", "inactive"],
  ["CCCCCCCCCc1ccc(O)cc1", "inactive"],
  ["COS(=O)(=O)OC", "inactive"],
  ["Cc1cccc(C)c1N", "inactive"],
  ["C[C@]12CCC(=O)C=C1CC[C@@H]1[C@@H]2CC[C@]2(C)C(=O)CC[C@@H]12", "active"],
  ["c1ccc(-c2ccccc2)cc1", "inactive"],
  ["NS(=O)(=O)C(F)(F)C(F)(F)C(F)(F)C(F)(F)C(F)(F)C(F)(F)C(F)(F)C(F)(F)F", "active"],
  ["Cc1cc(-c2ccc(N)c(C)c2)ccc1N", "active"]
]}

###

# Read-out: solute carrier (SLC10A1), SLC10A1 (gene 6554)
# procedure-details: LTEA_HepaRG_SLC10A1: Life Technologies and Expression Analysis (LTEA) Assay for solute carrier (SLC10A1) using HepaRG (AID 2283657)
# reported-conditions: mRNA level, 48 h; actives raise or lower the signal
Active and inactive are the calls of the source. Rule for the calls: active = hit-call score of the fitted dose curve at least 0.9, where 1 is the maximum; inactive = score below 0.9.
Possible outcomes: TRUE (active), FALSE (inactive)

{"columns": ["smiles-entry", "label-value"],
 "data": [
  ["O=C(O)C(F)(F)C(F)(F)C(F)(F)C(F)(F)C(F)(F)C(F)(F)C(F)(F)C(F)(F)C(F)(F)F", "TRUE"],
  ["CCCCCCCCCc1ccc(O)cc1", "FALSE"],
  ["COS(=O)(=O)OC", "FALSE"],
  ["Clc1ccc(Cl)cc1", "FALSE"]
]}

###

# Read-out: Interleukin 6 Receptor (IL6R), IL6R (gene 3570)
# procedure-details: LTEA_HepaRG_IL6R: Life Technologies and Expression Analysis (LTEA) Assay for Interleukin 6 Receptor (IL6R) using HepaRG (AID 2283510)
# reported-conditions: mRNA level, 48 h; actives raise or lower the signal
Active and inactive are the calls of the source. How the source made its calls: active means hit-call score of the fitted dose curve at least 0.9, where 1 is the maximum; inactive means score below 0.9.
Possible outcomes: active, inactive

{"columns": ["compound", "label-value"],
 "data": [
  ["C1CC2OC2CC1C1CO1 (stereo unspecified)", "inactive"],
  ["CCC(=O)O[C@H]1CC[C@H]2[C@@H]3CCC4=CC(=O)CC[C@]4(C)[C@H]3CC[C@]12C", "inactive"],
  ["CCC(C)c1cc([N+](=O)[O-])cc([N+](=O)[O-])c1O (stereo unspecified)", "inactive"],
  ["Cc1cccc([N+](=O)[O-])c1", "inactive"],
  ["O=S(=O)(O)C(F)(F)C(F)(F)C(F)(F)C(F)(F)C(F)(F)C(F)(F)F", "inactive"],
  ["Cc1ccccc1[N+](=O)[O-]", "inactive"],
  ["Clc1ccc(Cl)cc1", "inactive"],
  ["CC(C)(O)C(=O)Nc1ccc([N+](=O)[O-])c(C(F)(F)F)c1", "inactive"],
  ["ClC1=C(Cl)[C@]2(Cl)[C@@H]3[C@@H](Cl)[C@H]4O[C@H]4[C@@H]3C1(Cl)C2(Cl)Cl", "inactive"],
  ["Cc1ccccc1CO[C@@H]1C[C@@]2(C(C)C)CC[C@]1(C)O2", "inactive"],
  ["Oc1ccc(C(c2ccc(O)cc2)(C(F)(F)F)C(F)(F)F)cc1", "active"]
]}

###

# procedure-details: BSK_3C_VCAM1: BioMAP Diversity Plus: 3C Assay for Vascular cell adhesion molecule 1 (VCAM1) Biomarker Activity (AID 2282999)
# reported-conditions: BioMAP 3C HUVEC, VCAM1 ELISA, cytokine-stimulated; actives raise or lower the signal
# Method: BSK_3C is a cell-based, multiplexed-readout assay that uses umbilical vein endothelium, a human vascular primary cell, with measurements taken at 24 hours after chemical dosing in a 96-well plate.BSK_3C_VCAM1 is an assay component measured in the BSK_3C assay. It measures VCAM-1 antibody related to regulation of gene expression using ELISA technology.Data from the assay component BSK_3C_VCAM1 was analyzed into 1 assay endpoint. […]
Active and inactive are the calls of the source. Rule for the calls: active = hit-call score of the fitted dose curve at least 0.9, where 1 is the maximum; inactive = score below 0.9.
Possible outcomes: y (active), n (inactive)

{"columns": ["molecule", "label-value"],
 "data": [
  ["COc1ccc(O)c(C(C)(C)C)c1", "n"],
  ["CC(C)(c1ccccc1)c1ccc(O)cc1", "y"],
  ["CO/C=C(/C(=O)OC)c1ccccc1COc1cccc(C(F)(F)F)n1", "y"],
  ["CCCN(CCC)N=O", "n"],
  ["CCCCCCOC(=O)c1ccccc1C(=O)OCCCCCC", "n"],
  ["CC(C)C(=O)OCC(C)(C)C(OC(=O)C(C)C)C(C)C (configuration not stated)", "n"],
  ["Oc1ccc(C(c2ccc(O)cc2)(C(F)(F)F)C(F)(F)F)cc1", "y"],
  ["O=C(NC(=O)c1cc(F)c(F)cc1Cl)Nc1cc(F)ccc1N1CCC(C(=O)O)CC1", "n"],
  ["Cc1cccc(C)c1N", "n"],
  ["Cc1ccccc1CO[C@@H]1C[C@@]2(C(C)C)CC[C@]1(C)O2", "n"],
  ["C=CC(=O)NCNC(=O)C=C", "n"],
  ["COS(=O)(=O)OC", "n"]
]}
